molecular target: T1, Human VSIG4-L-Fc (human); assay: BLI binning on hVSIG4-L-Fc, competitor 16E03 first;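 also: normalized to binding of second antibody without first competitor antibody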
T1 construct: also called hVSIG4-L-Fc; hVSIG4-L
T1 sequence (chain, as listed by the source limits assumed): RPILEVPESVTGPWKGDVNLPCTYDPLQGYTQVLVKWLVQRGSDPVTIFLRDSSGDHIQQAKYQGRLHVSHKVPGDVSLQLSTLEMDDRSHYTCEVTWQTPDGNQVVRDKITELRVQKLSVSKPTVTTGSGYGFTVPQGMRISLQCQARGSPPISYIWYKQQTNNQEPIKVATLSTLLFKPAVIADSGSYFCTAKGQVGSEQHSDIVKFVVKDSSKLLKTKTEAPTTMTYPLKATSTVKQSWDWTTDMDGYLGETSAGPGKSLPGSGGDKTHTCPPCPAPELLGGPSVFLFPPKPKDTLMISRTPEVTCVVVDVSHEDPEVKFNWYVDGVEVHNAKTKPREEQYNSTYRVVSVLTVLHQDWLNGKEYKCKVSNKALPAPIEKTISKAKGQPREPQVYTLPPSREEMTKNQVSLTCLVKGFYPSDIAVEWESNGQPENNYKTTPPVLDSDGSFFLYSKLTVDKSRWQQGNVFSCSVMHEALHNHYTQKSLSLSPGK
Quantity: normalized maximum binding nm shift (normalized)
Note: unit normalized is implicit; provide only the numeric part.

Prompt line: So what does the record say about normalized maximum binding nm shift for 16E03 mouse/human chimeric IgG4 (S228P) kappa (antibody, V domains shown) VH: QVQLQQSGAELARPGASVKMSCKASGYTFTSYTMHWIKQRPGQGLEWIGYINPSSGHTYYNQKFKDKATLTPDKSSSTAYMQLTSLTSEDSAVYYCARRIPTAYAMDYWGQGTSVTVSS VL: EIQMTQSHKFMSTSVGDRVSITCKASQDVGTAVAWYQQKPGQSPKLLIYWASTRHTGVPDRFTGSGSGTDFTLTISNVQSEDLADYFCQQYSSYPLTFGAGTKLELKR ?
Response line: 0.04

Prompt line: Another binder: 12A12 mouse/human chimeric IgG4 (S228P) kappa (antibody, V domains shown) VH: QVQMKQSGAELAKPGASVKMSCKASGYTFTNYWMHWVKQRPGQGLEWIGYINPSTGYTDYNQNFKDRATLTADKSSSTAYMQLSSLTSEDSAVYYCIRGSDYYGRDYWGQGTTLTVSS VL: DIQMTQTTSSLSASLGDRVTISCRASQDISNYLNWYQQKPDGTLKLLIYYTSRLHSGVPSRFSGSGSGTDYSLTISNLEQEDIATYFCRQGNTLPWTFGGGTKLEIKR
Response line: 0.64

Prompt line: Another binder: 14D12 mouse/human chimeric IgG4 (S228P) kappa (antibody, V domains shown) VH: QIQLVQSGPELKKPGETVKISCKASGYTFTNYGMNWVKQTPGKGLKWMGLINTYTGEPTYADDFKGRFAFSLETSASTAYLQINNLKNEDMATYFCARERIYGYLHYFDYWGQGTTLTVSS VL: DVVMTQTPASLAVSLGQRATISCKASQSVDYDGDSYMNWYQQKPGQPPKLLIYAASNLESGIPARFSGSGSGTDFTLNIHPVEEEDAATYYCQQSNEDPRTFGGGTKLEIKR
Response line: 0.68
